test system: mitochondrial membrane potential in HepG2 cells; experiment: qHTS MMP assay, primary screen; assay type: cell-based, Human; conditions: Homo sapiens, HepG2, 1 h, read-out: mean IC50 of positive control, 1 h

COMPOUND	IC50 [nM]
N#CC(C#N)=NNc1ccc(OC(F)(F)F)cc1 [FCCP, reference compound]	810
